target: T1, TCE-37 (anti-CD3 scFv F104A; anti-TROP2 F108A); assay: competition ELISA, TCE on captured CD3
T1 construct: scFv on the Fab heavy chain
Where no end group is shown, it is not given here.
Readout label: IC50
Could you kindly put the unit after your number?

INSERT INTO measurements (binder, result) VALUES
  ('VYCGPEFDESVGCA (cysteine pairing not given here; also: biotinylated, site not given here, mask peptide for the CD3 scFv) [Peptide-73]', '10 nM'),
  ('YLCGPDADETLACY (cysteine pairing not given here; also: biotinylated, site not given here, mask peptide for the CD3 scFv) [Peptide-76]', '950 nM');

# context switch: different binder, same IC50
# query: IC50 of entry YLCGPDTDETLACY (cysteine pairing not given here; also: biotinylated, site not given here, mask peptide for the CD3 scFv) [Peptide-77]
8870 nM
